Target: Recombinant human his-tagged IGF 1R extracellular domain protein (human) (UniProt P08069)
Experiment: SPR, captured IgG, IGF-1R ECD-his analyte, dissociation pH 7.4
Task for the reader: assign each of the following binders its reported pKd.
One number for each entry, as −log10 of the molar value.

In the examples that follow, each entry is paired with its recorded pKd.
BINDER	pKd
VRDN-02547 (antibody, V domains shown) VH: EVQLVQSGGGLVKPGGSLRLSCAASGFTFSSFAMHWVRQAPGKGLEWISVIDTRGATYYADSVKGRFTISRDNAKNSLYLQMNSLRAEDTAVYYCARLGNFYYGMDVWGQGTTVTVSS VL: EIVLTQSPGTLSVSPGERATLSCRASQSIGSSLHWYQQKPGQAPRLLIKYASQSLSGIPDRFSGSGSGTDFTLTISRLEPEDFAVYYCHQHSRLPHTFGQGTKVEIK	11.08
VRDN-02536 (antibody, V domains shown) VH: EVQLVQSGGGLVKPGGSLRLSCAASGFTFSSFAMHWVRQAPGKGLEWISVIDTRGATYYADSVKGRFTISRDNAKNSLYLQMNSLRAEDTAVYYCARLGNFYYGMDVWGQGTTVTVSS VL: EIVLTQSPGTLSVSPGERATLSCRASQSIGSHLHWYQQKPGQAPRLLIKYASQSLSGIPDRFSGSGSGTDFTLTISRLEPEDFAVYYCHQSSRLPHTFGQGTKVEIK	11.13

Consider now this further binder.
The binder listed as VRDN-02557 (antibody, V domains shown) VH: EVQLVQSGGGLVKPGGSLRLSCAASGFTFSSFAMHWVRQAPGKGLEWISVIDTRGATYYADSVKGRFTISRDNAKNSLYLQMNSLRAEDTAVYYCARLGNFYYGHDVWGQGTTVTVSS VL: EIVLTQSPGTLSVSPGERATLSCRASQSIGSSLHWYQQKPGQAPRLLIKHASQSLSGIPDRFSGSGSGTDFTLTISRLEPEDFAVYYCHQSSRLPHTFGQGTKVEIK shows pKd equal to 8.09
